Catalogue of compounds with associated viability
# Experimental Details: reversal of MRP1-mediated doxorubicin resistance, pilot screen, H69AR cells, doxorubicin co-treatment (AID 601)
# Details: H69AR cells, CellTiter-Glo, 72 h; compound alone cytotoxicity; at 10 µM
Measurement Type: viability (%)

INSERT INTO results (compound, measurement_type, reported_measurement) VALUES
  ('CC1=C(C(=O)NCc2ccccc2)C(c2ccccc2OCC(N)=O)NC(=O)N1 (stereo unspecified)', 'viability', 109),
  ('Cc1ccc(-c2cc(C(=O)N3CCCC3)no2)cc1', 'viability', 95.1),
  ('COCCn1c(SCC(=O)Nc2nnc(C)s2)nnc1-c1ccncc1', 'viability', 97.9),
  ('Cc1nc(CNS(=O)(=O)c2cc(C)c(C)cc2C)cs1', 'viability', 94.3),
  ('CCN(CC)CCNC(=O)CCn1c(=S)[nH]c2cc3c(cc2c1=O)OCO3', 'viability', 90.1),
  ('COc1cccc2cc(C(=O)C3=C(O)C(=O)N(CCCN4CCOCC4)C3c3ccncc3)oc12 (stereo unspecified)', 'viability', 96.8),
  ('CCOc1ccccc1CN1C(=O)c2ccccc2C1C(=O)NCC1CCCO1 (stereo unspecified)', 'viability', 101),
  ('O=C(c1ccccc1)N1CCCCC(Sc2nnnn2-c2ccccc2)C1=O (stereo unspecified)', 'viability', 104),
  ('O=C(O)CC1NC(=O)N(c2ccccc2)C1=O (stereo unspecified)', 'viability', 99.3),
  ('CCOC(=O)c1cccc(NC(=O)CS(=O)(=O)Cc2nc(-c3cccc(OC)c3)oc2C)c1', 'viability', 85.3),
  ('COCCn1c(NCc2ccc(C)cc2)nc2c1c(=O)[nH]c(=O)n2C', 'viability', 107),
  ('COc1ccc(-n2ncc3c(NCCCN4CCOCC4)ncnc32)cc1', 'viability', 109),
  ('Cc1cc(C)n2cc(CSc3nnnn3C)nc2n1', 'viability', 85.7),
  ('O=C(CCCCCN1C(=O)CCC1=O)NCc1ccccc1', 'viability', 98.2),
  ('C=CCc1c(C)nc(SC)nc1Nc1ccc(C(=O)O)cc1', 'viability', 86.9),
  ('O=S(=O)(c1cc(Cl)ccc1Br)N1CCOCC1', 'viability', 91),
  ('COc1ccc(-n2ncc3c(=O)n(CC(=O)OCc4ccccc4)cnc32)cc1', 'viability', 97.8),
  ('CC(C)(C)C(=O)N=C1SC2CS(=O)(=O)CC2N1c1ccc2c(c1)OCO2 (stereo unspecified)', 'viability', 106),
  ('Nc1nc(-c2ccccc2Br)cs1', 'viability', 91.5),
  ('COc1ccc(NC(=O)CCCN2C(=O)C3C4C=CC(C4)C3C2=O)c(OC)c1 (stereo unspecified)', 'viability', 102),
  ('O=c1cc(NCc2ccccc2)nc2n1CCCS2', 'viability', 92.1),
  ('COC(=O)C(NC(C)=O)(Nc1ccccn1)C(F)(F)F (stereo unspecified)', 'viability', 89),
  ('Cn1c(=O)oc2cc(S(=O)(=O)NCCC(=O)N3CCc4ccccc4C3)ccc21', 'viability', 99.3),
  ('Cc1cc(C)cc(NC(=O)N2CCC(c3nc4ccccc4o3)CC2)c1', 'viability', 94.9),
  ('COc1cccc(Nc2cc(C)nc3ccccc23)c1', 'viability', 74.4),
  ('COc1ccc(N2CCN(CCCNC(=O)CC3Oc4ccc(C)cc4NC3=O)CC2)cc1 (stereo unspecified)', 'viability', 89.6),
  ('CC1Cc2ccccc2N1S(=O)(=O)c1cccc(C(=O)OCC(=O)NC2CCS(=O)(=O)C2)c1 (stereo unspecified)', 'viability', 97.2),
  ('CCC(=O)Nc1cc2nn(-c3ccccc3)nc2cc1Cl', 'viability', 68.2),
  ('COc1ccc(Cl)cc1C(=O)n1nc(C)cc1C', 'viability', 94.6),
  ('COc1cccc(NC(=O)CSc2nnc(-c3cc(-c4ccccn4)nc4ccccc34)o2)c1', 'viability', 76.4),
  ('COc1cc2c(cc1OC)C(c1cc(OC)c(OC)c(OC)c1)NCC2 (stereo unspecified)', 'viability', 91.9),
  ('CCOc1cc(C2C(C#N)=C(N)OC(C)=C2C(C)=O)cc(Br)c1O (stereo unspecified)', 'viability', 90.3),
  ('O=C(NC1CCCC1)c1c[nH]c2ccc(F)cc2c1=O', 'viability', 92),
  ('NC(=O)c1c(-c2ccccc2)oc2ccc(O)cc12', 'viability', 90.4),
  ('CCNC(=O)N(C(=O)NCC)n1c(C)nnc1C', 'viability', 104),
  ('O=C(COc1ccccc1)NCCSCc1ccco1', 'viability', 89.3),
  ('COc1ccc(OCC(=O)N2CCN(C(=O)c3cccs3)CC2)cc1', 'viability', 87.4),
  ('COc1cccc(C(=O)CN2CCC(NC(=O)NC3CCCCC3)CC2)c1', 'viability', 98.1),
  ('COc1ccc(OC)c(NC(=O)CSc2nc3ccccc3c(=O)n2CCNC(C)=O)c1', 'viability', 80.7),
  ('CCC(=O)N(CCCN(C)C)c1nc(-c2cc(OC)ccc2OC)cs1', 'viability', 84.6),
  ('Cn1c(CNc2nc(-c3ccccc3)cs2)nnc1SCC(=O)N1CCc2ccccc21', 'viability', 93.3),
  ('Cn1c(-c2cc(Br)ccc2O)n[nH]c1=S', 'viability', 92.9),
  ('CCCCC(CC)CNC(=O)C1CCCN(S(=O)(=O)c2cnc[nH]2)C1 (stereo unspecified)', 'viability', 92.2),
  ('Cc1cccc(NC(=O)CC(C)(C)C)c1', 'viability', 97.9),
  ('COC(=O)C1=C(C)Nc2nnnn2C1c1cccs1 (stereo unspecified)', 'viability', 96.9),
  ('CCc1ccc(N2CC(C(=O)OCC(=O)Nc3cc(C)on3)CC2=O)cc1 (stereo unspecified)', 'viability', 110);

----------
Quick reference for viability among some compounds
# Experimental Details: reversal of MRP1-mediated doxorubicin resistance, pilot screen, H69AR cells, doxorubicin co-treatment (AID 601)
# Details: H69AR cells, CellTiter-Glo, 72 h; compound alone cytotoxicity; at 10 µM
Measurement Type: viability (%)

INSERT INTO results (compound, reported_measurement) VALUES
  ('CCOc1ccc(C(=O)CN2CCN(S(=O)(=O)c3ccc(OC)cc3)CC2)cc1', 86.7),
  ('CCOC(=O)c1cnc(-n2cc(C)cn2)nc1Nc1ccccc1OC', 60.8),
  ('Cc1c(/C(O)=C2/C(=O)C(=O)N(CCN3CCOCC3)C2c2cccnc2)cnn1-c1ccccc1 (stereo not given)', 91.5),
  ('CCOC(=O)Cn1c(CN2CCN(c3cccc(Cl)c3)CC2)nc2c1c(=O)[nH]c(=O)n2C', 72.5),
  ('COc1ccccc1OCc1ccc(C(=O)OCC2CCCO2)o1 (stereo not given)', 100),
  ('Cc1cc2c(cc1C)-c1nnnn1C(C)(C)C2', 91.9),
  ('CCc1nnc2n1N=C(c1ccc(-c3ccc(Cl)cc3Cl)o1)CS2', 108),
  ('CC(=O)N1CCc2cc(S(=O)(=O)NC(CC(C)C)C(=O)N3CCn4c3nc3ccccc34)ccc21 (stereo not given)', 97.6),
  ('Cc1ccc(S(=O)(=O)C2(C(=O)NC3CCCC3)CC2)cc1', 97.1),
  ('C/C(N)=C(/C#N)C(=O)CSc1nnc(Nc2c(C)cccc2C)s1', 103);

----------
# Experimental Details: HUVEC growth inhibition – cell-based, human, primary screen (AID 575);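 further: 100% = median of untreated cell wells with 0.1% DMSO on each plate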
# Details: HUVEC proliferation, CellTiter-Glo luminescence, 72 h; at 10 µM; stronger effect = lower value
# viability per record follows
Measurement Type: viability (%)

INSERT INTO results (compound, measurement_type, reported_measurement) VALUES
  ('COc1ccccc1-n1nnnc1SCc1ccccc1', 'viability', 90.6),
  ('CN(C)S(=O)(=O)N1CCN(C(=O)N(c2ccccc2)c2ccccc2)CC1', 'viability', 99.4),
  ('CC(=O)Nc1ccc(NS(=O)(=O)C(F)(F)F)cc1', 'viability', 93.9),
  ('Nc1c(S(=O)(=O)c2cccs2)c2nc3ccccc3nc2n1CC1CCCO1 (stereo not drawn)', 'viability', 85.2),
  ('CCCOc1ccc(C2c3c(oc4ccccc4c3=O)C(=O)N2CCCN2CCOCC2)cc1 (stereo not drawn)', 'viability', 90.3),
  ('CCN1C(=O)/C(=C2\C=Cc3ccccc3N2CC)OC1=S', 'viability', 85.9),
  ('CCOC(=O)/C(C#N)=C1\Nc2ccccc2N=C1N(CC(C)C)CC(C)C', 'viability', 86.2),
  ('Cc1cc(NC(=O)c2cc3ccccc3o2)cc(C)c1OCC(=O)N1CCOCC1', 'viability', 90.6),
  ('O=C(Nc1cccnc1)c1noc2c1CCCCC2', 'viability', 105),
  ('O=c1cc(NCc2ccccc2)nc2n1CCCS2', 'viability', 104),
  ('CCCCc1nc(NCCNC(=O)c2ccco2)c(C#N)c2c1CSC(C)(C)C2', 'viability', 78.7),
  ('CC(=O)C1=C(O)C(=O)N(Cc2ccco2)C1c1ccc2c(c1)OCO2 (stereo not drawn)', 'viability', 119),
  ('COc1ccc(-n2c(SCC#N)nc3ccccc3c2=O)cc1', 'viability', 93.5),
  ('COc1ccc(-n2c(Cc3cccn3C)nnc2SCC(=O)Nc2cccc(C)c2C)cc1', 'viability', 91.4),
  ('CC(C(=O)N1CCCCC1)n1ncn2cccc2c1=O (stereo not drawn)', 'viability', 94.2),
  ('CCOC(=O)C1=C(C)N=c2s/c(=C\c3cccn3C)c(=O)n2C1c1cccc(OC)c1OC (stereo not drawn)', 'viability', 75.7),
  ('CCOC(=O)c1cccc(NC(=O)CSc2nnc(-c3ccoc3C)n2CCOC)c1', 'viability', 91.6),
  ('COC(=O)c1ccc(NC(=O)Cn2nnc3ccccc32)cc1', 'viability', 109),
  ('Cc1ccc(S(=O)(=O)NCC2CCC(C(=O)NCCCN3CCOCC3)CC2)cc1 (stereo not drawn)', 'viability', 92.7),
  ('O=C(C1CCC1)N1CCc2cc(S(=O)(=O)N3CCc4ccccc4C3)ccc21', 'viability', 72.1),
  ('Cn1c(SC/C=C/c2ccccc2)nnc1-c1cnccn1', 'viability', 114),
  ('CC(C)OCCCNC(=O)c1cc2c(s1)CS(=O)(=O)C2', 'viability', 90.3),
  ('Cc1ccc(-c2c3c(=O)n(C)c(=O)n(C)c3cn2CCCN2CCOCC2)cc1', 'viability', 103);
